Biological target: CDK2/Cyclin E complex (UniProt P24941 1-298; P24864 1-410); note: test concentration or dose not given here
Test: cell-based or functional assay
Ends that are not written are not given here.
property label: % Inhibition, cyclin E/CDK2 kinase (%)
Could you give me the number in %? Just the number is fine.

Past entries and their recorded results:
>>> recorded_result("DFYHSKARLIFS-NH2 [DFYHSKARLIFS-NH2]")
25
>>> recorded_result("DFYHSKRRLAFS-NH2 [DFYHSKRRLAFS-NH2]")
80
>>> recorded_result("HSKRRLIFSKRK-NH2 [HSKRRLIFSKRK-NH2]")
90
>>> recorded_result("YHSKR-NH2 [YHSKR-NH2]")
25
>>> recorded_result("HSKRRLIF-NH2 [p21 (152-159) HSKRRLIF-NH2]")
80

May I ask what % Inhibition, cyclin E/CDK2 kinase has been recorded for DFYHSKR-NH2 [DFYHSKR-NH2] ?
50

Look up % Inhibition, cyclin E/CDK2 kinase for this binder: DFYHSKRRLIAS-NH2 [DFYHSKRRLIAS-NH2]
20

Please give the measured % Inhibition, cyclin E/CDK2 kinase for this binder: DFYHSKRR-NH2 [DFYHSKRR-NH2]
40

Data request, read-out % Inhibition, cyclin E/CDK2 kinase, for FYHSKRRLIFS-NH2 [FYHSKRRLIFS-NH2]
80

Return reported % Inhibition, cyclin E/CDK2 kinase; argument: DAYHSKRRLIFS-NH2 [DAYHSKRRLIFS-NH2]
85
